Every entry's value here was drawn from the supplement of paper PMC7877785.

Recorded self-splicing fitness (ln) for the following sequences
# protocol: self-splicing fitness, log relative to wild type (ln ratio); higher = more splicing; Tetrahymena group I intron in knt gene, E. coli kanamycin selection, DiMSum; sequences stand for … in CUCUCU…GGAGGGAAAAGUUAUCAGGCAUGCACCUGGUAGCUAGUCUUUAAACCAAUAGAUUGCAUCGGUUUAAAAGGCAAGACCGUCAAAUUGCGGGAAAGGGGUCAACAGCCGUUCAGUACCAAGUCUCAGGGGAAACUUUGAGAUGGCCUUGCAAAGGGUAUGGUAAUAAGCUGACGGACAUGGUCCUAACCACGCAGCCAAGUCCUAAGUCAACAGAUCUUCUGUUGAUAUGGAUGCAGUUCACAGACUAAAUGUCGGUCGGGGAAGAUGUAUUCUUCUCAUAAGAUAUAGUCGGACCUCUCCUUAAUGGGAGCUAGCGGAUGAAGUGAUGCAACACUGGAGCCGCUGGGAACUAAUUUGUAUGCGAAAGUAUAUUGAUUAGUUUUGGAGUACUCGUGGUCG;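 note: selection with 25 µg/mL kanamycin versus none on LB agar overnight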
# setup.conditions: 30 °C
Answer as a number with no unit attached.

UCCAAGCAAUAUUACGAGUC | -3.66
CCCGAGCAAUAUUACGUUAG | -3.6
GAUGAGCAAUAUUACGCCUG | -1.57
GACAAGCAAUAUUACGUCCG | -1.98
ACCGAGCAAUAUUACGUUGG | -4.16

Shifting focus to the sequence that follows.
Qu. Consider the sequence shown here: AGGUAGCAAUAUUACGGAGC What is its recorded self-splicing fitness (ln)?
Ans. -4.05

====

# protocol: self-splicing fitness, log relative to wild type (ln ratio); higher = more splicing; Tetrahymena group I intron in knt gene, E. coli kanamycin selection, DiMSum; sequences stand for … in CUCUCU…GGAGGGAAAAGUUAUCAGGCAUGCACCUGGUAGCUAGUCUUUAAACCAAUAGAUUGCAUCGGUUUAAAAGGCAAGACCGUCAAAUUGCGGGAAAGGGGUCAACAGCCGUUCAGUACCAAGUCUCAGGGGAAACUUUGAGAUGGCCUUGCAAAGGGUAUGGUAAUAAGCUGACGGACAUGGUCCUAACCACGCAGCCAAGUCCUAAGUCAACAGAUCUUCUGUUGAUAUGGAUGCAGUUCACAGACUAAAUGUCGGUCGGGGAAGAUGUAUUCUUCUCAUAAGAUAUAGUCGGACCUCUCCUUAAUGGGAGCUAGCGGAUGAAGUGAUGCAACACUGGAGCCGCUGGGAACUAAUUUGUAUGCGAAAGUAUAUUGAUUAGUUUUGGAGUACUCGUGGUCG
# setup.conditions: 37 °C
Recorded self-splicing fitness (ln) for the following sequences
Answer as a number with no unit attached.

Qu. Consider the sequence shown here: UGCAAGCAAUAUUACGGAGA What is its recorded self-splicing fitness (ln)?
Ans. -3.01

Qu. Consider the sequence shown here: CUCCAGCAAUAUUACGGUAU What is its recorded self-splicing fitness (ln)?
Ans. -3.58

Qu. Consider the sequence shown here: GGAGAGCAAUAUUACGCCUA What is its recorded self-splicing fitness (ln)?
Ans. -2.48

Qu. Consider the sequence shown here: AGGUAGCAAUAUUACGGAGA What is its recorded self-splicing fitness (ln)?
Ans. -2.82

Qu. Consider the sequence shown here: GUCAAGCAAUAUUACGGUAC What is its recorded self-splicing fitness (ln)?
Ans. -0.924

====

# protocol: self-splicing fitness, log relative to wild type (ln ratio); higher = more splicing; Tetrahymena group I intron in knt gene, E. coli kanamycin selection, DiMSum; sequences stand for … in CUCUCU…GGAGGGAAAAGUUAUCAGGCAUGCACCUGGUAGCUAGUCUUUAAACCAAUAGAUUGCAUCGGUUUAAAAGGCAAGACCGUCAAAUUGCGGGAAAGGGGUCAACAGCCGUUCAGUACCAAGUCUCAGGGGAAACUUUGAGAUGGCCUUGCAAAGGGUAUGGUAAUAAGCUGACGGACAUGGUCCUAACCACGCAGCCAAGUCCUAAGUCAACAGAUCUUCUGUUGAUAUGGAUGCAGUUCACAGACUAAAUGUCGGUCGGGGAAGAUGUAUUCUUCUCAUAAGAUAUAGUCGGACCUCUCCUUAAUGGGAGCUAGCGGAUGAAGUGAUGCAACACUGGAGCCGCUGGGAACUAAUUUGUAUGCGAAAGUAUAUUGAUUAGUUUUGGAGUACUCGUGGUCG
# setup.conditions: 37 °C
measured.attribute: self-splicing fitness (ln)
Answer as a number with no unit attached.

See these solved cases before continuing.
AAAAAGCAAUAUUACGUAGA | -1.33
CGAGAGCAAUAUUACGCCUA | -0.235
GUUAAGCAAUAUUACGUUCC | -0.875
CAUGAGCAAUAUUACGCGGU | -2.33
GCCGAGCAAUAUUACGUGGG | -2.85

Qu. Consider the sequence shown here: AAUAAGCAAUAUUACGACCG What is its recorded self-splicing fitness (ln)?
Ans. 0.329

Qu. Consider the sequence shown here: GUUAAGCAAUAUUACGCUCU What is its recorded self-splicing fitness (ln)?
Ans. -1.12

Qu. Consider the sequence shown here: AUGAAGCAAUAUUACGUCAU What is its recorded self-splicing fitness (ln)?
Ans. -1.19

====

# protocol: self-splicing fitness, log relative to wild type (ln ratio); higher = more splicing; Tetrahymena group I intron in knt gene, E. coli kanamycin selection, DiMSum; sequences stand for … in CUCUCU…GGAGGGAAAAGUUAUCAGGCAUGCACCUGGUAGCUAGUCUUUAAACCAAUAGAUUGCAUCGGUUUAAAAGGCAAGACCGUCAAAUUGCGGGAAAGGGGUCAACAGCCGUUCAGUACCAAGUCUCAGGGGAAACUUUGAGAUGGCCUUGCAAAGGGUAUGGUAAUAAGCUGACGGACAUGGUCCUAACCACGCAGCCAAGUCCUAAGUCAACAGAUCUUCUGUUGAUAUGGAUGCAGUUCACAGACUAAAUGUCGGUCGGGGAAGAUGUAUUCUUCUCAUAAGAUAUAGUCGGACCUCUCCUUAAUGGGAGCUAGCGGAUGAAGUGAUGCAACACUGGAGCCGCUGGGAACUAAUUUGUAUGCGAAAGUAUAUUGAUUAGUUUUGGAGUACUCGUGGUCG
# setup.conditions: 37 °C
Recorded self-splicing fitness (ln) for the following sequences
Answer as a number with no unit attached.

See these solved cases before continuing.
AUCUAGCAAUAUUACGCAAA | -3.24
UCGGAGCAAUAUUACGGCUU | -1.45
AUAUAGCAAUAUUACGUCGG | -2.03
UCAAAGCAAUAUUACGACCU | -0.48
UUUAAGCAAUAUUACGCCUU | -1.35

Qu. Consider the sequence shown here: GACCAGCAAUAUUACGAGCG What is its recorded self-splicing fitness (ln)?
Ans. -0.434

Qu. Consider the sequence shown here: CCACAGCAAUAUUACGGCUU What is its recorded self-splicing fitness (ln)?
Ans. -2.71

====

# protocol: self-splicing fitness, log relative to wild type (ln ratio); higher = more splicing; Tetrahymena group I intron in knt gene, E. coli kanamycin selection, DiMSum; sequences stand for … in CUCUCU…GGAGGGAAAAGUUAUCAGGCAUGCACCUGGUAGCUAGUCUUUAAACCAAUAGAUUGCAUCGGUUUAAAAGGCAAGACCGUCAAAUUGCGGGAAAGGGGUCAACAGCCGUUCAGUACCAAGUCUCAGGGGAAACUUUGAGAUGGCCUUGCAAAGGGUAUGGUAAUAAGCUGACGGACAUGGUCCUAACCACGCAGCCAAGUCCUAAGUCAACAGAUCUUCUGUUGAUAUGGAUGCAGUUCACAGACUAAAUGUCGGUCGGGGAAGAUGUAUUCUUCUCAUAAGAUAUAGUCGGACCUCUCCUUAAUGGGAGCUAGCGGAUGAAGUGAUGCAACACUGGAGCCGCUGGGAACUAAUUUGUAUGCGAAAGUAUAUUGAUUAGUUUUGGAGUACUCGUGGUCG
# setup.conditions: 30 °C
Recorded self-splicing fitness (ln) for the following sequences
Answer as a number with no unit attached.

See these solved cases before continuing.
GCUGAGCAAUAUUACGGAGA | -2.79
ACCCAGCAAUAUUACGAAAU | -1.42
UGGUAGCAAUAUUACGCUGA | -1.07
CCCGAGCAAUAUUACGAGUA | -3.01
GUUAAGCAAUAUUACGCUCU | -1.24

Qu. Consider the sequence shown here: CCUGAGCAAUAUUACGGCAG What is its recorded self-splicing fitness (ln)?
Ans. -2.92

Qu. Consider the sequence shown here: UCUUAGCAAUAUUACGACGG What is its recorded self-splicing fitness (ln)?
Ans. -0.955

Qu. Consider the sequence shown here: UGUCAGCAAUAUUACGCAAC What is its recorded self-splicing fitness (ln)?
Ans. -2.59

Qu. Consider the sequence shown here: CGUUAGCAAUAUUACGUGCC What is its recorded self-splicing fitness (ln)?
Ans. -2.8

Qu. Consider the sequence shown here: CGCAAGCAAUAUUACGCUCA What is its recorded self-splicing fitness (ln)?
Ans. -0.828

Qu. Consider the sequence shown here: UCUUAGCAAUAUUACGGAGC What is its recorded self-splicing fitness (ln)?
Ans. -3.74

Qu. Consider the sequence shown here: CCGCAGCAAUAUUACGUUGU What is its recorded self-splicing fitness (ln)?
Ans. -3.23

Qu. Consider the sequence shown here: AUAUAGCAAUAUUACGCUUG What is its recorded self-splicing fitness (ln)?
Ans. -1.42

Qu. Consider the sequence shown here: UGUGAGCAAUAUUACGAUGA What is its recorded self-splicing fitness (ln)?
Ans. -2.75
